Each recorded value in this set is attributed to the supplement of paper PMC8671470.

tested on: Mono-Mac-6; assay: cell viability (% survival relative to DMSO control, bortezomib = 0%); higher = less cytotoxic; conditions: 10000 nM; 72 h
readout-kind: cell viability (%)
Dear colleague, please return just the value in %, with no unit written.

Before answering, review these 5 worked examples.
compound	cell viability [%]
O=C1O[C@H]([C@@H](O)CO)C(O)=C1O [Vitamin C (ascorbate)]	108
COc1ccc2c(C(=S)N(C)CC(=O)O)cccc2c1C(F)(F)F [Tolrestat]	95.4
CN(C)c1cc(NC(=O)CNC(C)(C)C)c(O)c2c1C[C@H]1C[C@H]3[C@H](N(C)C)C(=O)C(C(N)=O)C(=O)[C@@]3(O)C(=O)C1C2=O (stereo partly drawn) [Tigecycline]	93.7
N#Cc1ccnc(N2C(=O)CC[C@H]2C(=O)N(c2cncc(F)c2)C(C(=O)NC2CC(F)(F)C2)c2ccccc2Cl)c1 (stereo partly drawn) [Ivosidenib]	81.5
O=C(NNc1ccccc1)c1ccncc1 [PluriSln 1]	87.2

Param item = Nc1nc(Cl)nc2c1ncn2[C@H]1C[C@H](O)[C@@H](CO)O1 [Cladribine] ; retrieve measured cell viability.
-0.125

Check O=C(O)CCCCC(CCSCc1ccccc1)SCc1ccccc1 (stereo not drawn) [CPI-613] too.
96.3

Field entry: `CN(C)C(=O)[C@H](O)[C@H](Cc1ccccc1)NC(=O)c1cc2cc(Cl)ccc2[nH]1`
83.8

---

system: KCL-22; assay: cell viability (% survival relative to DMSO control, bortezomib = 0%); higher = less cytotoxic; settings: 10 nM; 72 h
readout-kind: cell viability
Form field: result (number plus unit)

Below, 7 molecules whose answers are already recorded.
> print(dat)
                                   molecule  measurement.target    readout.kind  result
1                   O=C(O)c1cc(Cl)cc(Cl)c1O              KCL-22  cell viability    140%
2  COc1ccc(C(=O)Nc2c(Cl)cncc2Cl)cc1OC1CCCC1              KCL-22  cell viability    101%
3  O=C1O/C(=C/Br)CCC1c1cccc2ccccc12 (stereo not drawn)              KCL-22  cell viability   93.1%
4  O=C1O[C@H]([C@@H](O)CO)C(O)=C1O [Vitamin C (ascorbate)]              KCL-22  cell viability   96.2%
5  CC(C)c1cc2c(c(O)c1O)[C@@]1(C(=O)O)CCCC(C)(C)[C@@H]1CC2              KCL-22  cell viability    104%
6  CC(C)(C#N)c1cc(Cn2cncn2)cc(C(C)(C)C#N)c1              KCL-22  cell viability   91.6%
7  COc1ccc2c(C(=S)N(C)CC(=O)O)cccc2c1C(F)(F)F              KCL-22  cell viability    103%

Would you kindly look at the next entry?
Query: cell viability; subject: `O=C(O)C[C@@]1(O)C[C@@H](CCCCCCc2ccc(Cl)cc2Cl)OC1=O`
107%

---

test system: myeloid leukemia patient primary cells Pat.14; experiment: cell viability (% survival relative to DMSO control); higher = less cytotoxic; details: 10000 nM; 72 h
readout-kind: cell viability (%)
Your answer is read as %, so omit the unit and give the number.

Consider the worked cases shown below.
compound	quantitative-result
COC(=O)[C@]12CCC(C)(C)C[C@H]1[C@H]1C(=O)C=C3[C@@]4(C)C=C(C#N)C(=O)C(C)(C)[C@@H]4CC[C@@]3(C)[C@]1(C)CC2 [Bardoxolone methyl]	25.8
C=C(C)[C@H]1Cc2c(ccc3c2O[C@@H]2COc4cc(OC)c(OC)cc4[C@@H]2C3=O)O1 [Rotenone]	10.7
C=C(C=NNC(=N)N)NNC(=N)N [Mitoguazone]	80.8

// switching to the query compound
What does the record list as cell viability for COc1cc(/C=C/C(=O)N2CCC=CC2=O)cc(OC)c1OC [Piperlongumine] ?
6.11

---

test system: SHI-1; settings: 72 h
readout-kind: IC50 (cell viability)

Recorded results for 4 compounds are shown here.
> print(dat)
                            molecule.smiles    result
1  O=C(O)Cn1nnc(-c2cc(N3CCC(Oc4cc(F)ccc4Br)CC3)no2)n1   > 10 µM
2  CC[C@@]1(O)C(=O)OCc2c1cc1n(c2=O)Cc2cc3c(CN(C)C)c(O)ccc3nc2-1  0.024 µM
3   Cc1coc2c1C(=O)C(=O)c1c-2ccc2c1CCCC2(C)C   > 10 µM
4  CCC(=O)N1CCN(c2ccc(-n3c(=O)ccc4cnc5ccc(-c6cnc7ccccc7c6)cc5c43)cc2C(F)(F)F)CC1   > 10 µM

Requested read-out: IC50 (cell viability). Entry: `COc1ccc2c(C(=S)N(C)CC(=O)O)cccc2c1C(F)(F)F`
> 10 µM

---

cell viability values by entry
system: KCL-22; assay: cell viability (% survival relative to DMSO control, bortezomib = 0%); higher = less cytotoxic; details: 100 nM; 72 h
Counter-ions that a name gives are not always drawn.
Only the number, expressed in %, is required.

> print(dat)
                                   molecule  measurement.target  readout.unit  quantitative.result
1  O=C1O[C@H]([C@@H](O)CO)C(O)=C1O [Vitamin C (ascorbate)]              KCL-22             %                 97.7
2  COc1ccc(C(=O)Nc2c(Cl)cncc2Cl)cc1OC1CCCC1              KCL-22             %                 92.7
3  N/C(=N\CCCC(N)C(=O)O)N[N+](=O)[O-] (stereo not drawn)              KCL-22             %                  106

Form field: cell viability recorded for `COC(=O)[C@]12CCC(C)(C)C[C@H]1[C@H]1C(=O)C=C3[C@@]4(C)C=C(C#N)C(=O)C(C)(C)[C@@H]4CC[C@@]3(C)[C@]1(C)CC2` with KCL-22 (enter value)
112

Same for `O=c1cc(-c2ccccc2)oc2cc(O)c(O)c(O)c12`
113

And what about the molecule `COc1ccc2c(C(=S)N(C)CC(=O)O)cccc2c1C(F)(F)F` ?
105

Repeat for the following molecule: Cc1ccccc1C(C(=O)NC1CCCCC1)N(C(=O)Cn1ccnc1C)c1cccc(F)c1 (stereo not drawn)
132

Try this molecule too: `O=C(O)C(=O)CBr`
91.7

Here is the next molecule: `O=C(O)C1=CC(=C(c2ccc(O)c(C(=O)O)c2)c2ccc(O)c(C(=O)O)c2)C=CC1=O`
92

Please give the result for `Cc1c(-c2ccc(-c3ccccc3F)cc2)nc2ccc(F)cc2c1C(=O)O` too.
97.9

Repeat for the following molecule: Cc1cc(CS(=O)(=O)c2ccccc2)cc(OCc2ccc(CN3CCC[C@@H]3CO)cc2)c1 [PF-543 hydrochloride]
122

And then `COc1cc(/C=C/C(=O)N2CCC=CC2=O)cc(OC)c1OC` , what is it?
90.3

Okay, and `CCCc1cc(-c2nc(-c3ccc(C)cc3)cs2)ccn1` ?
92.5

Cool, now `COc1ccc(CNC(=O)Nc2ncc([N+](=O)[O-])s2)cc1`
104

Try this molecule next: `Cc1coc2c1C(=O)C(=O)c1c-2ccc2c1CCCC2(C)C`
107

Repeat for the following molecule: `CC[C@@]1(O)C(=O)OCc2c1cc1n(c2=O)Cc2cc3c(CN(C)C)c(O)ccc3nc2-1`
27.9

Now give it for `O=C(O)Cn1nnc(-c2cc(N3CCC(Oc4cc(F)ccc4Br)CC3)no2)n1` too.
95.5

Try NS(=O)(=O)c1ccc([N+](=O)[O-])cc1 [4-Nitrobenzenesulfonamide] next.
103

---

test system: ML-2; conditions: 72 h
readout-kind: IC50 (cell viability)

For the molecule `O=C(O)C1=CC(=C(c2ccc(O)c(C(=O)O)c2)c2ccc(O)c(C(=O)O)c2)C=CC1=O` , what IC50 (cell viability) is on record?
> 10 µM

Follow-up entry: `CC1(C)[C@@H](O[C@H]2O[C@H](C(=O)O)[C@@H](O)[C@H](O)[C@H]2O[C@@H]2O[C@H](C(=O)O)[C@@H](O)[C@H](O)[C@H]2O)CC[C@]2(C)[C@H]3C(=O)C=C4[C@@H]5C[C@@](C)(C(=O)O)CC[C@]5(C)CC[C@@]4(C)[C@]3(C)CC[C@@H]12`
> 10 µM

Another: `C=C(C)[C@H]1Cc2c(ccc3c2O[C@@H]2COc4cc(OC)c(OC)cc4[C@@H]2C3=O)O1`
0.322 µM

Same thing, different molecule: `COc1ccc(S(=O)(=O)N2CCN(S(=O)(=O)c3ccc4c(c3)OCCO4)CC2)cc1`
> 10 µM

What do you get for `CC(C)c1cc2c(c(O)c1O)[C@@]1(C(=O)O)CCCC(C)(C)[C@@H]1CC2` ?
> 10 µM

Ok, now `CCCCN1C[C@H](O)[C@@H](O)[C@H](O)[C@H]1CO`
> 10 µM

Can you check `Nc1nc(Cl)nc2c1ncn2[C@H]1C[C@H](O)[C@@H](CO)O1` next?
0.238 µM

Next molecule: NS(=O)(=O)c1ccc([N+](=O)[O-])cc1 [4-Nitrobenzenesulfonamide]
> 10 µM

One more molecule: `COc1ccc(-c2ccccc2)cc1NS(=O)(=O)c1cc(Cl)cc(Cl)c1O`
> 10 µM

One more molecule: `O=C1c2cc([N+](=O)[O-])ccc2-n2c1nc1ccccc1c2=O`
6.05 µM

Also `CC(C)c1nc(CN(C)C(=O)N[C@H](C(=O)N[C@@H](Cc2ccccc2)C[C@H](O)[C@H](Cc2ccccc2)NC(=O)OCc2cncs2)C(C)C)cs1` , if possible.
> 10 µM

Entry to check: `Cc1c(-c2ccc(-c3ccccc3F)cc2)nc2ccc(F)cc2c1C(=O)O`
8.46 µM
